- target: Alpha-1A adrenergic receptor (Homo sapiens) (UniProt P35348)
- Sequence (P35348 whole entry): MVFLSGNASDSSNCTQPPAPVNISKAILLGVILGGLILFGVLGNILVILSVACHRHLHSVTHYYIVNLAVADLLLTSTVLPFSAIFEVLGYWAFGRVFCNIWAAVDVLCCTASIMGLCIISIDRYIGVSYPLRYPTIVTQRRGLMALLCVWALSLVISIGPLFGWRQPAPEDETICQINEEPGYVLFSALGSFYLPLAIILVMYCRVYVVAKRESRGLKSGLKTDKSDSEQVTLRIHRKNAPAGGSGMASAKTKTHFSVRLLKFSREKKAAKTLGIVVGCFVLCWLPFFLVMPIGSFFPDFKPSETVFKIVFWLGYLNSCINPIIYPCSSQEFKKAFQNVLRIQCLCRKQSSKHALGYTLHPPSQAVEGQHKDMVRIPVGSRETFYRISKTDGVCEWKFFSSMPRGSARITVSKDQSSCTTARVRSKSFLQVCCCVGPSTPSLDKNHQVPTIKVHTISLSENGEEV
- method_summary: Displacement of [3H]-prazosin from human alpha1A adrenoreceptor expressed in enriched membranes at 1 uM incubated for 90 mins by liquid scintillation counting method relative to control
- Assay type: cell membranes

compound	inhibition, %
CC1OC2(CCN(CCc3ccccc3)CC2)CN(c2ccccc2F)C1=O (stereo not given)	68
C[C@@H]1OC2(CCN(CCc3ccccc3)CC2)CN(c2ccccc2)C1=O	68
CC(=O)Nc1ccccc1CCN1CCC2(CC1)CN(c1ccccc1)C(=O)C(C)O2 (stereo not given)	68
COC(=O)CC1OC2(CCN(CCc3ccccc3)CC2)CN(c2ccccc2)C1=O (stereo not given)	72
CC1OC2(CCN(CCc3ccccc3)CC2)CN(c2ccncc2)C1=O (stereo not given)	68
